Across several publications, the following IC50 results were reported for PIK3CA (human) (UniProt P42336).

1) C[C@@H](C(N)=O)N(C)c1ccc2c(c1)OCCn1cc(N3C(=O)OC[C@H]3C(F)F)nc1-2
0.86 nM
2) C[C@H]1COCCN1c1nc(N2CCOC[C@@H]2C)c2nc(-c3ccc4[nH]c(=O)[nH]c4c3)[nH]c2n1
> 9100 nM
3) CC(=O)N1CCN(Cc2ccc3c(N4CCOCC4)nc(-c4cnc(N)nc4)nc3c2)CC1
201 to 10000 nM
4) CC(C)Cn1c(N2CCN(C=O)CC2)nc2c(N3CCOC[C@@H]3C)nc(-c3cnc(N)nc3)nc21
< 10 nM
5) Cc1cc(-c2ccc3ncc(C(=O)N4CCOCC4)n3c2)cc2nc(N)oc12
< 1000 nM

Using PIK3CA (human) (UniProt P42336) as the test system, report measured IC50 of `CN1CCN(CCCn2cnc3ccc(-c4ccc5oc(N)nc5c4)cc3c2=O)CC1` .
< 1000 nM

Using PIK3CA (human) (UniProt P42336) as the test system, report measured IC50 of `CNC(=O)Nc1ccc(-c2cnc3c(N4CCOCC4)nc(-c4cnc(N)nc4)nc3c2)cc1` .
< 50 nM

Using PIK3CA (human) (UniProt P42336) as the test system, report measured IC50 of `CC1(NCC(=O)N[C@H]2CC[C@H](Oc3cc(-n4c(C(F)F)nc5ccccc54)nc(N4CCOCC4)n3)CC2)CC1` .
> 10000 nM

###

Across several publications, the following IC50 results were reported for PIK3CA (human) (UniProt P42336).
// map IC50 to label using lower range: < 600 nM; middle range: ≥ 600 nM and < 3000 nM; upper range: ≥ 3000 nM

These recorded examples may help you get a feel for the data.
1. CCn1ccc2c(N3CCOCC3)nc(-c3ccc(NC(=O)Nc4ccc(C(=O)N5CCC(N6CCOCC6)CC5)cc4)cc3)nc21
lower range
2. Cn1ncc2c(Oc3ccc4[nH]ccc4c3)nc(-c3ccccc3)nc21
lower range
3. CN1CCC(CNc2nc(N3CCOCC3)nc(-n3c(C(F)F)nc4ccccc43)n2)CC1
middle range
4. Cc1nc2ccc(-c3ccc4c(c3)CN(C(=O)N3CCCCC3c3ccc(F)c(F)c3)CCO4)cc2[nH]1 (stereo not shown)
lower range
5. CC(C)NC(=O)Nc1ccc2c(c1)C(=O)/C(=C/c1cn(C)c3nccc(N4CCC(C(=O)N(C)C)CC4)c13)O2
middle range
6. CN(CC(C)(C)O)[C@H]1CC[C@H](CNc2nc(N3CCOCC3)cc(-n3c(C(F)F)nc4ccccc43)n2)CC1
middle range

Quick check: band for `COc1cc(-c2csc3cc([C@H](C)NC(=O)c4c(N)nn5cccnc45)n(-c4ccccc4)c(=O)c23)ccn1`
upper range

Quick check: band for CCN1CCCC(Nc2ccc(-c3cccc(Oc4cc(=O)[nH]c5ccccc45)c3)cc2)C1 (stereo not shown)
upper range

Quick check: band for `O=S1(=O)CCCN1[C@H]1CC[C@H](Nc2cc(-n3c(C(F)F)nc4ccccc43)nc(N3CCOCC3)n2)CC1`
middle range

Quick check: band for `Cn1ncc2c(Nc3ccc(C(N)=O)cc3)nc(-c3ccc(-c4ccccc4)cc3)nc21`
upper range

Quick check: band for `COC[C@@H]1CCN(C(=O)Nc2nc3c(s2)-c2nc(C(C)(C)C(F)(F)F)ncc2CC3)[C@@H]1C(N)=O`
lower range

###

pIC50: −log10 of the molar value.
Across several publications, the following pIC50 results were reported for PIK3CA (human) (UniProt P42336).

1. COc1ccc(-c2cccc3cc([C@H](C)Nc4ncnc5cccnc45)n(-c4ccccc4)c(=O)c23)cn1
5.00 to 6.00

Using PIK3CA (human) (UniProt P42336) as the test system, report measured pIC50 of `C[C@H](Nc1ncnc2[nH]cnc12)c1cc2cccc(Cl)c2c(C(=O)NC2CCOCC2)n1` .
< 5.00

Using PIK3CA (human) (UniProt P42336) as the test system, report measured pIC50 of COC1CCN(C(=O)C2CCN(c3ccnc4c3c(/C=C3\Oc5ccc(NC(=O)Nc6cccnc6)cc5C3=O)cn4C)CC2)C1 (stereo not shown) .
5.79

###

Across several publications, the following IC50 results were reported for PIK3CA (human) (UniProt P42336).
Please use Y for IC50 under 1000 nM and N for everything else, ties included.

These recorded examples may help you get a feel for the data.
1) C[C@@H]1COCCN1c1nc(N2CCOC[C@H]2C)c2nc(-c3cc(CO)ccc3F)[nH]c2n1
Y
2) CC[C@@H]1CN(c2nc3c(N4CCOCC4)nc(-c4cnc(N)nc4)nc3n2CC(F)(F)F)CCN1C(=O)[C@H](C)O
Y
3) O=c1cc(Oc2cccc(-c3ccsc3)c2)c2ccccc2[nH]1
Y

For `CC(C)=CCN(CC(C)(C)O)[C@H]1CC[C@H](CNc2nc(N3CCOCC3)cc(-n3c(C(F)F)nc4ccccc43)n2)CC1` , is the recorded IC50 below the cut-off of 1000 nM?
N

For `O=c1cc(Oc2ccc(-c3cn[nH]c3)cc2)c2ccccc2[nH]1` , is the recorded IC50 below the cut-off of 1000 nM?
N

###

Across several publications, the following IC50 results were reported for PIK3CA (human).

1) Cn1ncc2c(Oc3ccc4[nH]ccc4c3)nc(-c3ccc(-c4ccccc4)cc3)nc21
11500 nM
2) C[C@H](O)C(=O)N1CCC(n2nnc3cnc4ccc(-c5cnc(N)c(C(F)(F)F)c5)cc4c32)CC1
< 100 nM
3) Cc1ncc(S(=O)(=O)N2CCOCC2)c(N2CCOc3ccc(-c4cnc5nc(C)[nH]c5c4)cc3C2)n1
1000 to 2000 nM
4) Cc1cccc2cc(Cn3nc(-c4ccc(O)c(F)c4)c4c(N)ncnc43)n(-c3ccccc3F)c(=O)c12
> 10000 nM

Look up IC50 of `C[C@H]1COCCN1c1nc(-c2cnc(N)cc2F)nc2ccc(-c3cccc(NS(=O)(=O)CCCF)c3F)nc12` and report it.
1 to 100 nM

Look up IC50 of `CC(=O)Nc1nc2ccc(-c3nn(Cc4cc5cccc(Cl)c5c(=O)n4C4CC4)c4ncnc(N)c34)cc2s1` and report it.
< 100 nM

###

pIC50: −log10 of the molar value.
Across several publications, the following pIC50 results were reported for PIK3CA (human) (UniProt P42336).

Worked examples follow.
1) O=c1cc(Oc2cccc(-c3ccc4[nH]ccc4c3)c2)c2ccccc2[nH]1
< 5.00
2) COC(=O)Nc1nc2cc(-c3ccc4c(c3)CN(C(=O)N3CC[C@H](O)C[C@@H]3c3ccc(F)cc3)CCO4)ccc2[nH]1 (racemic)
6.70 to 7.12

Using PIK3CA (human) (UniProt P42336) as the test system, report measured pIC50 of `C[C@H](Nc1ccnc2ccnn12)c1cc2cccc(Cl)c2c(=O)n1C1CC1` .
5.00 to 6.00

Using PIK3CA (human) (UniProt P42336) as the test system, report measured pIC50 of `COC[C@@H]1CCN(C(=O)Nc2nc(C)c(-c3ccnc(C(C)(C)C(F)(F)F)c3)s2)[C@@H]1C(N)=O` .
7.92

###

pIC50: −log10 of the molar value.
Across several publications, the following pIC50 results were reported for UniProtKB P42336.

1) Nc1nc2cc(-c3ccc4ncc(-c5cccnc5)cc4n3)ccc2o1
> 7.00
2) Cc1nc2ccc(-c3ccc4c(c3)CN(C(=O)N3CC[C@@H](O)C3)CCO4)cc2[nH]1
6.00 to 6.30
3) Cc1nc2ccc(-c3ccc4c(c3)CN(C(=O)N3CCCCC3c3cccc(C(F)(F)F)c3)CCO4)cc2[nH]1 (stereo not shown)
6.30 to 6.70

Let us move to another entry and its pIC50.
Using UniProtKB P42336 as the test system, report measured pIC50 of `CN(CC(C)(C)O)[C@H]1CC[C@H](COc2cc(-n3c(C(F)F)nc4ccccc43)nc(N3CCOCC3)n2)CC1` .
5.25

###

Across several publications, the following pIC50 results were reported for PIK3CA (human).
pIC50: −log10 of the molar value.

Worked examples follow.
1. CN(C)C(=O)C1CCN(c2ccnc3c2c(/C=C2\Oc4ccc(Br)cc4C2=O)cn3C)CC1
< 5.00
2. N#Cc1ccc(Oc2cc(=O)[nH]c3ccccc23)cc1
5.68
3. O=S(=O)(Nc1cc(-c2cn[nH]c2)cnc1Cl)c1ccccc1
6.50
4. FC(F)c1nc2ccccc2n1-c1cc(N2CCOCC2)nc(NCC23CCC(N4CCOCC4)(CC2)CC3)n1
5.19
5. Cc1cccc2cc(Cn3nc(-c4cc(O)cc(F)c4)c4c(N)ncnc43)n(C3CCCCC3)c(=O)c12
< 5.00

Using PIK3CA (human) as the test system, report measured pIC50 of `CN1CCC[C@H]1C(=O)N[C@H]1CC[C@H](Oc2cc(-n3c(C(F)F)nc4ccccc43)nc(N3CCOCC3)n2)CC1` .
< 5.00

Using PIK3CA (human) as the test system, report measured pIC50 of `Nc1nc2cc(-c3ccc4ncc(C(=O)N5CCC(F)(F)CC5)n4c3)ccc2o1` .
> 6.00

Using PIK3CA (human) as the test system, report measured pIC50 of `C[C@H](NC(=O)c1c(N)nn2cccnc12)c1cc2cccc(C=O)c2c(=O)n1-c1ccccc1` .
< 5.00
